B1: Homeobox protein SIX6, residues 134 to 184; numbered along this chain, O95475 (parent)
chain: CFKERTRHLLREWYLQDPYPNPSKKRELAQATGLTPTQVGNWFKNRRQRDR

variants of: B1; assay: abundance fitness (aPCA) (normalised: wild type 0, dead -1); higher = more abundant; growth selection in yeast, the domain comes from the species named; conditions: Homo sapiens
Experimental Endpoint: abundance fitness
Output spec: single numeric token, no unit.

Name the recorded abundance fitness of the variant listed here: `K24N`
-0.281

Name the recorded abundance fitness of the variant listed here: `P36Q`
-0.246

Name the recorded abundance fitness of the variant listed here: `R26P`
-0.836

Name the recorded abundance fitness of the variant listed here: `T35A`
-0.846

Name the recorded abundance fitness of the variant listed here: `N21H`
0.337

Name the recorded abundance fitness of the variant listed here: `R49S`
-0.334

Name the recorded abundance fitness of the variant listed here: `P36D`
-0.357

Name the recorded abundance fitness of the variant listed here: `A31R`
-0.185

Name the recorded abundance fitness of the variant listed here: `Q38K`
-0.608

Name the recorded abundance fitness of the variant listed here: `N41K`
0.351

Name the recorded abundance fitness of the variant listed here: `P18Q`
-0.234

Name the recorded abundance fitness of the variant listed here: `F43H`
-0.858

Name the recorded abundance fitness of the variant listed here: `P20I`
-0.466

Name the recorded abundance fitness of the variant listed here: `A31N`
-0.098

Name the recorded abundance fitness of the variant listed here: `E27F`
-0.318

Name the recorded abundance fitness of the variant listed here: `T35G`
-0.886

Name the recorded abundance fitness of the variant listed here: `L28R`
-0.765

Name the recorded abundance fitness of the variant listed here: `R46D`
-0.728

Name the recorded abundance fitness of the variant listed here: `R46C`
-0.203

Name the recorded abundance fitness of the variant listed here: `L34S`
-0.707

Name the recorded abundance fitness of the variant listed here: `P20M`
-0.817

Name the recorded abundance fitness of the variant listed here: `E27Q`
-0.758

Name the recorded abundance fitness of the variant listed here: `P20W`
-1.05

Name the recorded abundance fitness of the variant listed here: `N21A`
-0.222

Name the recorded abundance fitness of the variant listed here: `P36H`
-0.553

Name the recorded abundance fitness of the variant listed here: `D50M`
-0.417

Name the recorded abundance fitness of the variant listed here: `N45T`
-0.423

Name the recorded abundance fitness of the variant listed here: `T35P`
-0.877

Name the recorded abundance fitness of the variant listed here: `Q30T`
-0.051

Name the recorded abundance fitness of the variant listed here: `V39E`
-0.906

Name the recorded abundance fitness of the variant listed here: `Q48T`
-0.411

Name the recorded abundance fitness of the variant listed here: `N45L`
-0.401

Name the recorded abundance fitness of the variant listed here: `T37I`
-0.1

Name the recorded abundance fitness of the variant listed here: `Q30H`
-0.205

Name the recorded abundance fitness of the variant listed here: `K44G`
-0.68

Name the recorded abundance fitness of the variant listed here: `K25L`
0.049

Name the recorded abundance fitness of the variant listed here: `R26T`
-0.429

Name the recorded abundance fitness of the variant listed here: `Q30P`
-0.893

Name the recorded abundance fitness of the variant listed here: `T35L`
-0.733

Name the recorded abundance fitness of the variant listed here: `K44Q`
-0.271

Name the recorded abundance fitness of the variant listed here: `P18W`
-0.491

Name the recorded abundance fitness of the variant listed here: `A29L`
-0.917

Name the recorded abundance fitness of the variant listed here: `T35N`
-0.581

Name the recorded abundance fitness of the variant listed here: `P22Y`
-0.424

Name the recorded abundance fitness of the variant listed here: `P22H`
-0.467

Name the recorded abundance fitness of the variant listed here: `S23A`
0.012

Name the recorded abundance fitness of the variant listed here: `R51W`
-0.832

Name the recorded abundance fitness of the variant listed here: `L28W`
-0.788

Name the recorded abundance fitness of the variant listed here: `P20G`
-0.887

Name the recorded abundance fitness of the variant listed here: `S23G`
-0.328

Name the recorded abundance fitness of the variant listed here: `S23W`
-0.517

Name the recorded abundance fitness of the variant listed here: `K44P`
-0.957

Name the recorded abundance fitness of the variant listed here: `G40P`
-0.783

Name the recorded abundance fitness of the variant listed here: `P22L`
0.161

Name the recorded abundance fitness of the variant listed here: `P36Y`
0.372

Name the recorded abundance fitness of the variant listed here: `R49F`
-0.238

Name the recorded abundance fitness of the variant listed here: `T32D`
-0.719

Name the recorded abundance fitness of the variant listed here: `L28E`
-0.808

Name the recorded abundance fitness of the variant listed here: `P36F`
0.217

Name the recorded abundance fitness of the variant listed here: `R47K`
-0.861

Name the recorded abundance fitness of the variant listed here: `L28F`
-0.442

Name the recorded abundance fitness of the variant listed here: `D50I`
-0.995

Name the recorded abundance fitness of the variant listed here: `K24Q`
0.074

Name the recorded abundance fitness of the variant listed here: `K25H`
-0.031

Name the recorded abundance fitness of the variant listed here: `Q38I`
-0.702

Name the recorded abundance fitness of the variant listed here: `G33D`
-0.629

Name the recorded abundance fitness of the variant listed here: `A29G`
-0.397

Name the recorded abundance fitness of the variant listed here: `K44V`
-0.543

Name the recorded abundance fitness of the variant listed here: `P22Q`
-0.352

Name the recorded abundance fitness of the variant listed here: `N41L`
-0.278

Name the recorded abundance fitness of the variant listed here: `K24F`
-0.984

Name the recorded abundance fitness of the variant listed here: `P36G`
-0.664

Name the recorded abundance fitness of the variant listed here: `N41R`
0.155

Name the recorded abundance fitness of the variant listed here: `W42R`
-0.762

Name the recorded abundance fitness of the variant listed here: `Y19M`
-0.312

Name the recorded abundance fitness of the variant listed here: `Q48W`
-0.079

Name the recorded abundance fitness of the variant listed here: `Q38P`
-0.9

Name the recorded abundance fitness of the variant listed here: `G40S`
0.152

Name the recorded abundance fitness of the variant listed here: `T37Y`
-0.236

Name the recorded abundance fitness of the variant listed here: `R47C`
-0.662

Name the recorded abundance fitness of the variant listed here: `P36A`
-0.225

Name the recorded abundance fitness of the variant listed here: `K44L`
-0.525

Name the recorded abundance fitness of the variant listed here: `Q30C`
-0.301

Name the recorded abundance fitness of the variant listed here: `Y19I`
-0.366

The measured values listed here are drawn from the Human Domainome abundance scans (Beltran et al. 2025).
